Measurement Notes: protein stability index of a GFP-peptide fusion (yeast GPS) (PSI 1-4); higher = more stable; sorted into four equal gates, so the index is relative within each strain
Condition Description: san1∆
Listed here are sequences together with their documented protein stability index.
Response field accepts a number only; no unit should be typed.

Study these solved cases before continuing.
sequence_string="VKGDLLQEAIDFAQKEI [PRE10]" test_value=3.2
sequence_string="VSNSISRLGEENLPGLS [SNU114]" test_value=1.07
sequence_string="PAKPALSFGTATSDNKT [YJL041W/NSP1]" test_value=2.93

(Q) Dear colleague, I am looking for the recorded protein stability index of the following sequence: AIVPGQSISGTLELSAQ [SWP82]
(A) 2.98

(Q) Dear colleague, I am looking for the recorded protein stability index of the following sequence: HGQLKLSIQYMIQKVME [RPN5]
(A) 2.04

(Q) Dear colleague, I am looking for the recorded protein stability index of the following sequence: VKYASPNLNMKYRKRQL [FAS2]
(A) 3.02

(Q) Dear colleague, I am looking for the recorded protein stability index of the following sequence: ICGYTRKEGPTIYYVDS [PRE2]
(A) 3.42

(Q) Dear colleague, I am looking for the recorded protein stability index of the following sequence: KLEKLRNEKRMFLEFQS [SMC2]
(A) 3.15

(Q) Dear colleague, I am looking for the recorded protein stability index of the following sequence: IHYSWSFILYYRRALQS [YML103C/NUP188]
(A) 1.26

(Q) Dear colleague, I am looking for the recorded protein stability index of the following sequence: SGSQNISEFDSFTDILK [RPN12]
(A) 3

(Q) Dear colleague, I am looking for the recorded protein stability index of the following sequence: LQIVNQLPANMVHLYSI [RPC17]
(A) 1.67

(Q) Dear colleague, I am looking for the recorded protein stability index of the following sequence: PLDEIPVDVDFNLDLDD [REC8]
(A) 2.24

(Q) Dear colleague, I am looking for the recorded protein stability index of the following sequence: AKTLIPSLNNKISDDEL [RPB4]
(A) 3.06

(Q) Dear colleague, I am looking for the recorded protein stability index of the following sequence: TEYRGTLVSTDNYFNLQ [SMX3]
(A) 2.4

(Q) Dear colleague, I am looking for the recorded protein stability index of the following sequence: PKKHLSETADETLENNI [RPN11]
(A) 3.17

(Q) Dear colleague, I am looking for the recorded protein stability index of the following sequence: GHIGAYLIVAGVDPTGS [PUP1]
(A) 1.68

(Q) Dear colleague, I am looking for the recorded protein stability index of the following sequence: VLKFTFTGEKPIITGST [MED8]
(A) 2.04
